System: RXRa homodimer (NR concentration 180 nM)
Experiment: PBM binding z-score (relative to random genomic background probes); higher = stronger binding; sequences stand for … in GC…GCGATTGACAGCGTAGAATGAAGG
Label TRUE when PBM binding z-score >= 3; otherwise FALSE.

[
  {
    "Sequence record": "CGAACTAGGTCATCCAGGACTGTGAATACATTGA",
    "Group": "FALSE"
  },
  {
    "Sequence record": "TCTAGTTAGTCACGGAGGTCACACACGACGGGTA",
    "Group": "TRUE"
  },
  {
    "Sequence record": "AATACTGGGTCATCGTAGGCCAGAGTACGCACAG",
    "Group": "TRUE"
  },
  {
    "Sequence record": "TTACCAAGGTGAAGGTCATTGATCCCTCTGTAGA",
    "Group": "TRUE"
  },
  {
    "Sequence record": "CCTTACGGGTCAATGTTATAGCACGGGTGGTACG",
    "Group": "TRUE"
  }
]

Does PBM binding z-score meet or surpass 3 for "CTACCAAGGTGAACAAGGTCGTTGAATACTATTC" ?
FALSE

Does PBM binding z-score meet or surpass 3 for "CCTACTGGGCCAAGGGCATTGATCAGTCAAAGCA" ?
FALSE

Does PBM binding z-score meet or surpass 3 for "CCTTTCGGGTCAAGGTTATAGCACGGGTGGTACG" ?
TRUE

Does PBM binding z-score meet or surpass 3 for "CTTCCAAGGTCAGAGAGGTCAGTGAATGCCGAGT" ?
TRUE

---

Test system: RARb:RXRa (NR concentration 270 nM, RXRa partner concentration 90 nM)
Test: PBM binding z-score (relative to random genomic background probes); higher = stronger binding; sequences stand for … in GC…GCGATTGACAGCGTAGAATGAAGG
Assay readout: PBM binding z-score

[
  {
    "Sequence record": "ATCGAAAGGTCGACGAGGCGAGTATACACCGTTT",
    "Assay readout": "PBM binding z-score",
    "Recorded value": 3.84
  },
  {
    "Sequence record": "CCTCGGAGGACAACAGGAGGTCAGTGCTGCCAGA",
    "Assay readout": "PBM binding z-score",
    "Recorded value": 2.92
  },
  {
    "Sequence record": "ACTAGCTGGCCAAGTTTGGGTCACTCAAACAAAG",
    "Assay readout": "PBM binding z-score",
    "Recorded value": 1.08
  },
  {
    "Sequence record": "ATATTTAGGTTACATCCGGGTCATTCAGGCTATG",
    "Assay readout": "PBM binding z-score",
    "Recorded value": 2.54
  },
  {
    "Sequence record": "GGAACGAGCGCAAGTTGATAGCAGAGTTTGATGG",
    "Assay readout": "PBM binding z-score",
    "Recorded value": -0.612
  },
  {
    "Sequence record": "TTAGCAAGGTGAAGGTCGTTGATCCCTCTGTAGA",
    "Assay readout": "PBM binding z-score",
    "Recorded value": 2.03
  },
  {
    "Sequence record": "GGAACGAGGGCATTCGATTTGATAGCATGGCGAT",
    "Assay readout": "PBM binding z-score",
    "Recorded value": 1.96
  },
  {
    "Sequence record": "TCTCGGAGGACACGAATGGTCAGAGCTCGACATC",
    "Assay readout": "PBM binding z-score",
    "Recorded value": 1.5
  }
]

Provide only the value of recorded PBM binding z-score for "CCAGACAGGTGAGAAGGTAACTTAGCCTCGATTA"
0.689

Provide only the value of recorded PBM binding z-score for "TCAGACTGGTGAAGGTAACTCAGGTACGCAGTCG"
-0.0149

Provide only the value of recorded PBM binding z-score for "CCTACTGGGCTAAGGTCATTGATCAGTCAAAGCA"
3.5

---

System: RARb homodimer (NR concentration 270 nM)
Assay: PBM binding z-score (relative to random genomic background probes); higher = stronger binding; sequences stand for … in GC…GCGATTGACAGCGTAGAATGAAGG
Item-by-item account of PBM binding z-score
// no unit, no text: just the number

[
  {
    "Sequence record": "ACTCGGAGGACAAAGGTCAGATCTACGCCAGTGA",
    "Experimental system": "RARb homodimer (NR concentration 270 nM)",
    "PBM binding z-score": 4.47
  },
  {
    "Sequence record": "TAGCCTAGGTCATTTAGGGGCCAGTATAGAAAGC",
    "Experimental system": "RARb homodimer (NR concentration 270 nM)",
    "PBM binding z-score": 3.12
  },
  {
    "Sequence record": "AGAACGAGGGCAATGAATTGATAGCACGGGTGGC",
    "Experimental system": "RARb homodimer (NR concentration 270 nM)",
    "PBM binding z-score": 0.905
  },
  {
    "Sequence record": "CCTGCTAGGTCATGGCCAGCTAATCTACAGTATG",
    "Experimental system": "RARb homodimer (NR concentration 270 nM)",
    "PBM binding z-score": 3.06
  },
  {
    "Sequence record": "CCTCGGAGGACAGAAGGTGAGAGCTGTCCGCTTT",
    "Experimental system": "RARb homodimer (NR concentration 270 nM)",
    "PBM binding z-score": 1.05
  }
]

Provide only the value of recorded PBM binding z-score for "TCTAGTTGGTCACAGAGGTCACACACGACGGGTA"
4.61

Provide only the value of recorded PBM binding z-score for "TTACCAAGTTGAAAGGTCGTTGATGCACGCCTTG"
2.1

Provide only the value of recorded PBM binding z-score for "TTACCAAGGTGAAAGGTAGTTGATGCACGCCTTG"
0.674

Provide only the value of recorded PBM binding z-score for "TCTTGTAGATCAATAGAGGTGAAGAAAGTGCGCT"
0.962

Provide only the value of recorded PBM binding z-score for "AGTCAAAGTTCACTAGGTAACGTGAGATTCAGCT"
3.59

---

Tested on: PPARg:RXRa DBDmut IVT, anti-RXR (DBD mutation: RXRa K156A/R161A, NR concentration 270 nM, RXRa partner concentration 90 nM)
Assay: PBM binding z-score (relative to random genomic background probes); higher = stronger binding; sequences stand for … in GC…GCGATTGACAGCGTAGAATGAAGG
Label YES when PBM binding z-score >= 0.9; otherwise NO.

Examples with answers:
[
  {
    "Sequence record": "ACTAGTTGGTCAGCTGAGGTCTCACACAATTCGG",
    "Group": "YES"
  },
  {
    "Sequence record": "ACTAGCAGGCCAAGTTTGGGTCAGTCAAACAAAG",
    "Group": "NO"
  },
  {
    "Sequence record": "ATCTCTAGGTAACAATTTCAGTGAAAGAGAGGAC",
    "Group": "YES"
  },
  {
    "Sequence record": "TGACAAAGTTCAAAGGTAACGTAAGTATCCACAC",
    "Group": "NO"
  },
  {
    "Sequence record": "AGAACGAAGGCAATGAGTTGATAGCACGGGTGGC",
    "Group": "NO"
  },
  {
    "Sequence record": "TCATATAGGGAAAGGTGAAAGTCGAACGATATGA",
    "Group": "YES"
  }
]

Now look at this entry.
Does PBM binding z-score meet or surpass 0.9 for "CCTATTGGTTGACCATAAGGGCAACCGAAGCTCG" ?
NO

---

Tested on: VDR:RXRa (NR concentration 270 nM, RXRa partner concentration 90 nM)
Assay: PBM binding z-score (relative to random genomic background probes); higher = stronger binding; sequences stand for … in GC…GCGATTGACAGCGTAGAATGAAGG
Assay readout: PBM binding z-score
// no unit, no text: just the number

[
  {
    "Sequence record": "CGAACTAGGTCAAGTACAGTGAATCTCCGCACGC",
    "PBM binding z-score": 2.02
  },
  {
    "Sequence record": "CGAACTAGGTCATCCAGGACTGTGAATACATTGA",
    "PBM binding z-score": 2.81
  },
  {
    "Sequence record": "CCTGCCAGGTCAATGGTCAGCTAAAGCAGCTCGC",
    "PBM binding z-score": 1.5
  },
  {
    "Sequence record": "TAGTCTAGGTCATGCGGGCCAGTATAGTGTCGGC",
    "PBM binding z-score": 2.86
  }
]

Give PBM binding z-score only, for "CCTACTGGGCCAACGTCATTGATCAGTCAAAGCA" , using VDR:RXRa (NR concentration 270 nM, RXRa partner concentration 90 nM) data.
-0.476

Give PBM binding z-score only, for "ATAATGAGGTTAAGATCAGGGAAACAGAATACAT" , using VDR:RXRa (NR concentration 270 nM, RXRa partner concentration 90 nM) data.
1.6

Give PBM binding z-score only, for "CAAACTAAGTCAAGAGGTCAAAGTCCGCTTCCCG" , using VDR:RXRa (NR concentration 270 nM, RXRa partner concentration 90 nM) data.
5.15

Give PBM binding z-score only, for "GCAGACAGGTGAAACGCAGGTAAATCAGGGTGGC" , using VDR:RXRa (NR concentration 270 nM, RXRa partner concentration 90 nM) data.
-0.374

Give PBM binding z-score only, for "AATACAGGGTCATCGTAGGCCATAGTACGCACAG" , using VDR:RXRa (NR concentration 270 nM, RXRa partner concentration 90 nM) data.
5.58

Give PBM binding z-score only, for "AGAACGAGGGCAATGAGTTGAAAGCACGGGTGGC" , using VDR:RXRa (NR concentration 270 nM, RXRa partner concentration 90 nM) data.
5.39

Give PBM binding z-score only, for "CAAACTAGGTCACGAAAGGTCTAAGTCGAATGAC" , using VDR:RXRa (NR concentration 270 nM, RXRa partner concentration 90 nM) data.
3.75

Give PBM binding z-score only, for "CCTATTGGGCCACGAAAGGTCATTGATTCAGTGA" , using VDR:RXRa (NR concentration 270 nM, RXRa partner concentration 90 nM) data.
4.16
